B1: Superoxide dismutase [Mn], mitochondrial, P04179 (parent)
chain: MLSRAVCGTSRQLAPVLGYLGSRQKHSLPDLPYDYGALEPHINAQIMQLHHSKHHAAYVNNLNVTEEKYQEALAKGDVTAQIALQPALKFNGGGHINHSIFWTNLSPNGGGEPKGELLEAIKRDFGSFDKFKEKLTAASVGVQGSGWGWLGFNKERGHLQIAACPNQDPLQGTTGLIPLLGIDVWEHAYYLQYKNVRPDYLKAIWNVINWENVTERYMACKK

Variants of: B1
Details: Homo sapiens; pH 7.8; Thermal; DSC; Potassium phosphate 20 mM; reversible: yes; structure 1N0J; whole UniProt chain shown
ASSAY_READOUT: change of melting temperature, mutant - wild type (higher = more stable) (°C)
Provide the reading as a plain figure in °C.

These recorded examples may help you get a feel for the data.
Problem: Quick one: change of melting temperature, mutant - wild type (higher = more stable) of "Q167E" ?
Result: 14.1

Problem: Try this variant next: "Q167A"
Result: -9.1

Further cases:
Problem: Quick one: change of melting temperature, mutant - wild type (higher = more stable) of "Q167S" ?
Result: 6

Problem: Try this variant next: "Q167H"
Result: 0

Problem: Try this variant next: "Q167V"
Result: -20.7
